Target: Dipeptidase 1 (Homo sapiens)
Sequence (P16444 whole entry): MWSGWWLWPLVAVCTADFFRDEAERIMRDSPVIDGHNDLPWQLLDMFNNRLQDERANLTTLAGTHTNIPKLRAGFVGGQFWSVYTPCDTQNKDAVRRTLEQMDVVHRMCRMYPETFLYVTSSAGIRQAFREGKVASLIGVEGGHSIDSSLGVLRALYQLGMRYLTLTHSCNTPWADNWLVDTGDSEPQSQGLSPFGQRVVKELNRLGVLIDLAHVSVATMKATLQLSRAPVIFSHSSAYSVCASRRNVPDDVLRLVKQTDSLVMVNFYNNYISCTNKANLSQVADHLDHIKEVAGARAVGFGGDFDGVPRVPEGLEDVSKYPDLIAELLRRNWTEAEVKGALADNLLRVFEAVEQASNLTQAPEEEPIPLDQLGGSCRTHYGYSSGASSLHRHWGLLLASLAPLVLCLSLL
For each of the compounds below, state its IC50.

Please look at the items below and tell me IC50 for each one, in order.
1. c1ccc(-c2nnn[nH]2)c(-c2ccc(Cn3cnc4cccnc43)cc2)c1 [L-809-558]
2. C1=Cc2[nH]c3cc(OCc4ccc(-c5ccccc5-c5nnn[nH]5)cc4)ccc3c2CC1 [L-809,339]
3. Cc1nc2ccccc2n1Cc1ccc(-c2ccccc2-c2nnn[nH]2)cc1 [L-809-559]
4. Cc1ccc(-c2ccccc2-c2nnn[nH]2)cc1 [L-158,507]
5. c1ccc(-c2ccccc2-c2nn[nH]n2)cc1 [L-809,022]
6. CCCc1nc(CC)c(C=O)n1Cc1ccc(-c2ccccc2-c2nnn[nH]2)cc1
7. CCCCc1nc2ccc(O)cc2c(=O)n1Cc1ccc(-c2ccccc2-c2nnn[nH]2)cc1
8. CCCc1nc2ccc(Cl)nc2n1Cc1ccc(-c2ccccc2-c2nnn[nH]2)cc1 [L-158-678]

-- reply
> 250 µM
> 100 µM
> 250 µM
> 1000 µM
> 1000 µM
190 µM
> 100 µM
240 µM

====

molecular target: Beta-lactamase (Bacteroides fragilis, UniProt Q8KZP2); assay: Metallo-Beta-Lactamase Assay; details: pH 7; 37 °C
Sequence (Q8KZP2 whole entry): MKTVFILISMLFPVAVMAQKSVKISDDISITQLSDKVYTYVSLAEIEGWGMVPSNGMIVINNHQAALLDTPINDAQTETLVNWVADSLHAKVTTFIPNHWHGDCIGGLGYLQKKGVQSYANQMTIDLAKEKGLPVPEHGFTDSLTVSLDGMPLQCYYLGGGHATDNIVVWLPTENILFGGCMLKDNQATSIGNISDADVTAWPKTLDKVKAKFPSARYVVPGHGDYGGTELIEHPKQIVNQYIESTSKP
endpoint.name: IC50 (µM)
Numbers only, in µM.

Example compounds with recorded IC50:
| smiles.input | reading.unit | reading |
| --- | --- | --- |
| CCCc1nc2ccc(Cl)nc2n1Cc1ccc(-c2ccccc2-c2nnn[nH]2)cc1 | µM | 3.5 |
| C1=Cc2c(c3ccccc3n2Cc2ccc(-c3ccccc3-c3nnn[nH]3)cc2)CC1 | µM | 0.3 |

Please look at the items below and tell me IC50 for each one, in order.
1. CCCCc1nc2c(c(=O)n1Cc1ccc(-c3ccccc3-c3nnn[nH]3)cc1)SCC2
2. c1ccc(-c2ccccc2-c2nn[nH]n2)cc1
3. c1ccc(-c2nnn[nH]2)c(-c2ccc(Cn3cnc4cccnc43)cc2)c1
4. Cc1nc2ccccc2n1Cc1ccc(-c2ccccc2-c2nnn[nH]2)cc1

-- reply
1. 0.4
2. 860
3. 42
4. 4

Please look at the items below and tell me IC50 for each one, in order.
1. Oc1ccc2c3c(n(Cc4ccc(-c5ccccc5-c5nnn[nH]5)cc4)c2c1)C=CCC3
2. c1ccc(-c2nnn[nH]2)c(-c2ccc(Cn3cnc4ccccc43)cc2)c1
3. CCCCc1nc2ccc(O)cc2c(=O)n1Cc1ccc(-c2ccccc2-c2nnn[nH]2)cc1

-- reply
1: 6; 2: 110; 3: 1.9

Please look at the items below and tell me IC50 for each one, in order.
1. CCCc1nc(CC)c(C=O)n1Cc1ccc(-c2ccccc2-c2nnn[nH]2)cc1
2. C1=Cc2[nH]c3cc(OCc4ccc(-c5ccccc5-c5nnn[nH]5)cc4)ccc3c2CC1
3. Cc1ccnc2c1nc(C(C)C)n2Cc1ccc(-c2ccccc2-c2nnn[nH]2)cc1
4. Cc1ccc(-c2ccccc2-c2nnn[nH]2)cc1

-- reply
1. 7
2. 42
3. 1.8
4. 160
